Parameter: IC90. Scope: all listed entries.
Tested on: Plasmodium berghei
measurement_description: Luciferase/luciferin-expressing antifolate-resistant parasites were used to infect a culture of HepG2 cells that were pre-incubated with compounds. Infected hepatocytes emit light due to the luciferase reaction. Assay results are presented as the percent inhibition of light emission compared to control. […]
Format: functional
experimental_parameters: sporozoite, read-out: LUCIFERASE INFECTION ASSAY - IC90
Write the value in µM as a bare number.

Completed entries (count: 10):
INSERT INTO results (chemical_string, reported_value) VALUES
  ('CCOC(=O)c1sc(NC(=O)c2cccc(S(=O)(=O)N(C)c3ccc(OC)cc3)c2)cc1C', 9.74),
  ('COc1ccc(Nc2nc(N)nc(CSc3nc4ccccc4o3)n2)cc1', 3.53),
  ('CCc1cccc(CC)c1N1C(=O)C=CC1=O', 5.85),
  ('CC(C)c1cc(NCc2ccccn2)n2ncc(-c3ccccc3)c2n1', 3.94),
  ('O=C(Nc1ccc(Cl)c(C(F)(F)F)c1)Nc1ccc2nc(-c3ccsc3)nn2c1', 9.25),
  ('COc1ccc(NS(=O)(=O)c2ccc3oc(Nc4cc(C)on4)nc3c2)cc1', 9.75),
  ('Cc1ccc(CNc2nc(NCc3cccs3)nc3ccsc23)c(C)c1', 1.63),
  ('COc1ccc(NC(=O)c2cc(-c3ccccc3)n(-c3ccccc3)c2C)cc1', 4.38),
  ('COc1ccc(NC(=O)CN(C)c2nc(-c3cccnc3)nc3sc(C)c(C)c23)cc1', 3.92),
  ('Cn1c(NCC2CC2)nc2cnc(-c3ccc4ccccc4c3)cc21', 2.07);

Please look up its IC90: `CCCCn1c(=O)[nH]c(=O)c2c1nc(-c1ccc(C)c([N+](=O)[O-])c1)n2CC`
3.73

Follow-up item: `O=C(CSc1nnc(C2CC2)o1)NCCC1=CCCCC1`
3.33

Subsequent entry: `CNc1snc(C)c1C(=O)OCc1csc(-c2ccccc2)n1`
1.26

Same read-out for `CCn1c2ccccc2c2cc(Nc3cc(-c4ccc(O)cc4)ncn3)ccc21` ?
5.79

Try this compound next: `C/C=C/c1ccc(Oc2nc(C(F)(F)F)nc3ccccc23)c(OC)c1`
6.79

Same read-out for `Cn1c(Sc2ncc([N+](=O)[O-])s2)n[nH]c1=O` ?
7.26

And the next one, `CCOc1ccc2nc(N/N=C3/C(=O)N(c4ccccc4)N=C3C)sc2c1` ?
9.42

---

Test system: Plasmodium berghei
measurement_description: Luciferase/luciferin-expressing antifolate-resistant parasites were used to infect a culture of HepG2 cells that were pre-incubated with compounds. Infected hepatocytes emit light due to the luciferase reaction. Assay results are presented as the percent inhibition of light emission compared to control. […]
Format: functional
experimental_parameters: sporozoite, HEPG2TOX_HILL_SLOPE 8.26, HEPG2TOX_R_SQUARED 0.825, PBLUC_HILL_SLOPE 4.24, PBLUC_R_SQUARED 0.374, read-out: LUCIFERASE INFECTION ASSAY - IC50
quantity_measured: IC50 (µM)
Numeric only. Scale: µM

Quick one: IC50 of COc1ccccc1-c1nnc(SC(C(=O)Nc2cc(Cl)cc(Cl)c2)c2ccccc2)o1 (stereo unspecified) ?
4.54

---

System: Plasmodium berghei
measurement_description: Luciferase/luciferin-expressing antifolate-resistant parasites were used to infect a culture of HepG2 cells that were pre-incubated with compounds. Infected hepatocytes emit light due to the luciferase reaction. Assay results are presented as the percent inhibition of light emission compared to control. […]
Type: functional
experimental_parameters: sporozoite, FFLUC_HILL_SLOPE 15.1, FFLUC_R_SQUARED 0.397, PBLUC_HILL_SLOPE 2.07, PBLUC_R_SQUARED 0.0694, read-out: LUCIFERASE INFECTION ASSAY - IC50
quantity_measured: IC50 (µM)
Value expressed in µM; do not type the unit.

Give the reported IC50 for `Cc1c(C(=O)C(F)(F)F)c(-c2nn(-c3ccccc3)c(NC(=O)C(F)(F)F)c2C(=O)C(F)(F)F)c(C)n1-c1ccc(Br)cc1` (system: Plasmodium berghei).
6.64

---

System: Plasmodium berghei
measurement_description: Luciferase/luciferin-expressing antifolate-resistant parasites were used to infect a culture of HepG2 cells that were pre-incubated with compounds. Infected hepatocytes emit light due to the luciferase reaction. Assay results are presented as the percent inhibition of light emission compared to control. […]
Assay type: functional
experimental_parameters: sporozoite, HEPG2TOX_HILL_SLOPE 0.967, HEPG2TOX_R_SQUARED 0.942, PBLUC_HILL_SLOPE 2.72, PBLUC_R_SQUARED 0.6, read-out: LUCIFERASE INFECTION ASSAY - IC50
quantity_measured: IC50 (µM)
API: value field is a number in µM; no unit string.

Item: `O=C(Nc1ccc2c(c1)OCO2)C1CCN(c2ccnc3cc(Cl)ccc23)CC1` Test system: Plasmodium berghei Read-out: IC50 Value: ?
3.61

---

Tested on: Plasmodium berghei
measurement_description: Luciferase/luciferin-expressing antifolate-resistant parasites were used to infect a culture of HepG2 cells that were pre-incubated with compounds. Infected hepatocytes emit light due to the luciferase reaction. Assay results are presented as the percent inhibition of light emission compared to control. […]
Assay type: functional
experimental_parameters: sporozoite, HEPG2TOX_HILL_SLOPE 1.76, HEPG2TOX_R_SQUARED 0.7, PBLUC_HILL_SLOPE 112, PBLUC_R_SQUARED 0.058, read-out: LUCIFERASE INFECTION ASSAY - IC50
quantity_measured: pIC50
Please treat pIC50 as minus the base-10 logarithm of the molar concentration.

// pIC50 lookup, key: `O=c1nc(-c2ccccn2)[nH]c2scc(-c3ccccc3)c12`
5.66

---

Tested on: Plasmodium berghei
measurement_description: Luciferase/luciferin-expressing antifolate-resistant parasites were used to infect a culture of HepG2 cells that were pre-incubated with compounds. Infected hepatocytes emit light due to the luciferase reaction. Assay results are presented as the percent inhibition of light emission compared to control. […]
Format: functional
experimental_parameters: sporozoite, FFLUC_HILL_SLOPE 2.42, FFLUC_R_SQUARED 0.441, PBLUC_HILL_SLOPE 1.78, PBLUC_R_SQUARED 0.144, read-out: LUCIFERASE INFECTION ASSAY - IC50
quantity_measured: pIC50
# pIC50 = -log10(concentration in molar units)

Entry under review: `N#Cc1c(SCc2ccc(Cl)cc2)nc2c(c1-c1cccs1)CCCC2` . Reported pIC50?
5.12

---

Tested on: Plasmodium berghei
measurement_description: Luciferase/luciferin-expressing antifolate-resistant parasites were used to infect a culture of HepG2 cells that were pre-incubated with compounds. Infected hepatocytes emit light due to the luciferase reaction. Assay results are presented as the percent inhibition of light emission compared to control. […]
Assay type: functional
experimental_parameters: sporozoite, PBLUC_HILL_SLOPE 5.8, PBLUC_R_SQUARED 0.551, read-out: LUCIFERASE INFECTION ASSAY - IC50
quantity_measured: pIC50
// scale note: pIC50 = -log10(conc_M); give the bare number

Give the measured pIC50 of `Cc1ccc2c(Cl)cc(Cl)c(OCN3C(=O)c4ccccc4C3=O)c2n1` .
5.40

---

System: Plasmodium berghei
measurement_description: Luciferase/luciferin-expressing antifolate-resistant parasites were used to infect a culture of HepG2 cells that were pre-incubated with compounds. Infected hepatocytes emit light due to the luciferase reaction. Assay results are presented as the percent inhibition of light emission compared to control. […]
Assay type: functional
experimental_parameters: sporozoite, HEPG2TOX_HILL_SLOPE 1.54, HEPG2TOX_R_SQUARED 0.918, PBLUC_HILL_SLOPE 12.4, PBLUC_R_SQUARED 0.732, read-out: LUCIFERASE INFECTION ASSAY - IC50
quantity_measured: IC50
Don't forget the unit after the value.

Reported IC50 for `S=C(Nc1ccccc1)N1CCCN(c2nc3ccc(Cl)cc3s2)CC1` : what is it?
2.65 µM

---

Test system: Plasmodium berghei
measurement_description: Luciferase/luciferin-expressing antifolate-resistant parasites were used to infect a culture of HepG2 cells that were pre-incubated with compounds. Infected hepatocytes emit light due to the luciferase reaction. Assay results are presented as the percent inhibition of light emission compared to control. […]
Format: functional
experimental_parameters: sporozoite, HEPG2TOX_HILL_SLOPE 1.34, HEPG2TOX_R_SQUARED 0.874, PBLUC_HILL_SLOPE 11.6, PBLUC_R_SQUARED 0.65, read-out: LUCIFERASE INFECTION ASSAY - IC50
quantity_measured: IC50 (µM)
Enter your answer as a number in µM; do not include the unit.

Look up IC50 for this compound: `O=C(NNC(=O)c1nn(-c2ccccc2)cc1O)c1ccc(-n2cccn2)cc1`
3.53

---

Test system: Plasmodium berghei
measurement_description: Luciferase/luciferin-expressing antifolate-resistant parasites were used to infect a culture of HepG2 cells that were pre-incubated with compounds. Infected hepatocytes emit light due to the luciferase reaction. Assay results are presented as the percent inhibition of light emission compared to control. […]
Assay type: functional
experimental_parameters: sporozoite, PBLUC_HILL_SLOPE 3.17, PBLUC_R_SQUARED 0.165, read-out: LUCIFERASE INFECTION ASSAY - IC50
pIC50: −log10 of the molar value.
quantity_measured: pIC50

So what's the measured pIC50 for this one? `NC1=C(c2ccccc2)C(=O)c2ccccc21`
< 4.83
